Parameter Remaining amount of Aβ28 and species detected by LC-MS (Table S2): see the listing below.
- assay.method.text: Peptide hydrolysis in Hepes buffer alone or with Cu2+/Zn2+, followed by HPLC-ESI/MS
- Type: physicochemical
- details: Aβ28 500 µM + 500 µM copper(II) nitrate; 50 mM HEPES pH 7.4; 4 °C; 14 days; LC-MS relative % area
Respond with the bare value in %.

DAEFRHDSGYEVHHQKLV.F [hydrolytic fragment 1-18 of Aβ28]
4
K.LVFFAEDVGSNK [hydrolytic fragment 17-28 of Aβ28]
1
DAEFRHDSGYEVHHQKLVFFAE.D [hydrolytic fragment 1-22 of Aβ28]
3

Here's the next entry for you.
According to the records, this substance DAEFRHDSGYEVHHQKLVF.F [hydrolytic fragment 1-19 of Aβ28] displays Remaining amount of Aβ28 and species detected by LC-MS (Table S2) of 1

---

quantity.name: amount (%) of intact peptide after hydrolysis

Lab note: `H-MDVFMKGLSKAKEGV-NH2` gave amount (%) of intact peptide after hydrolysis of > 90%

---

- assay.method.text: Peptide hydrolysis in Hepes buffer alone or with Cu2+/Zn2+, followed by HPLC-ESI/MS
- Format: physicochemical
- details: Aβ28 500 µM alone; 50 mM HEPES pH 7.4; 4 °C; 14 days; LC-MS relative % area
Catalogue of substances with associated Remaining amount of Aβ28 and species detected by LC-MS (Table S2)
Field format: number, assumed %, no unit text.

The recorded Remaining amount of Aβ28 and species detected by LC-MS (Table S2) for entry Q.KLVFFAEDVGSNK [hydrolytic fragment 16-28 of Aβ28] equals 16

The measured Remaining amount of Aβ28 and species detected by LC-MS (Table S2) associated with K.LVFFAEDVGSNK [hydrolytic fragment 17-28 of Aβ28] reads 22

# Remaining amount of Aβ28 and species detected by LC-MS (Table S2) (substance: DAEFRHDSGYEVHHQKLV.F [hydrolytic fragment 1-18 of Aβ28] ) is 5

So for E.FRHDSGYEVHHQ.K [hydrolytic fragment 4-15 of Aβ28] , the logged Remaining amount of Aβ28 and species detected by LC-MS (Table S2) turned out to be 2

---

- assay.method.text: Peptide hydrolysis in Hepes buffer alone or with Cu2+/Zn2+, followed by HPLC-ESI/MS
- Format: physicochemical
- details: Aβ28 500 µM + 500 µM zinc(II) chloride; 50 mM HEPES pH 7.4; 4 °C; 21 days; LC-MS relative % area
# label = MET if Remaining amount of Aβ28 and species detected by LC-MS (Table S2) < 7% else NOT MET

DAEFRHDSGYEVHHQKLV.F [hydrolytic fragment 1-18 of Aβ28]
NOT MET
Q.KLVFFAEDVGSNK [hydrolytic fragment 16-28 of Aβ28]
NOT MET
DAEFRHDSGYEVHHQKLVF.F [hydrolytic fragment 1-19 of Aβ28]
MET

Consider now this further substance.
Could you please tell me whether Remaining amount of Aβ28 and species detected by LC-MS (Table S2) recorded for K.LVFFAEDVGSNK [hydrolytic fragment 17-28 of Aβ28] is less than 7%?
MET

---

- assay.method.text: Peptide hydrolysis in Hepes buffer alone or with Cu2+/Zn2+, followed by HPLC-ESI/MS
- Assay type: physicochemical
- details: Aβ28 500 µM + 500 µM zinc(II) chloride; 50 mM HEPES pH 7.4; 4 °C; 14 days; LC-MS relative % area
Here the recorded Remaining amount of Aβ28 and species detected by LC-MS (Table S2) is given for each entry.
Answer in %, number only, no unit symbol.

DAEFRHDSGYEVHHQKLVF.F [hydrolytic fragment 1-19 of Aβ28]
7
K.LVFFAEDVGSNK [hydrolytic fragment 17-28 of Aβ28]
5
Q.KLVFFAEDVGSNK [hydrolytic fragment 16-28 of Aβ28]
10

Please fill in: Remaining amount of Aβ28 and species detected by LC-MS (Table S2) reported for DAEFRHDSGYEVHHQKLV.F [hydrolytic fragment 1-18 of Aβ28] = 7

So, DAEFRHDSGYEVHHQKLVFFAE.D [hydrolytic fragment 1-22 of Aβ28] ? Its Remaining amount of Aβ28 and species detected by LC-MS (Table S2) was 9

---

Documented Remaining amount of Aβ28 and species detected by LC-MS (Table S2) across a set of substances
- assay.method.text: Peptide hydrolysis in Hepes buffer alone or with Cu2+/Zn2+, followed by HPLC-ESI/MS
- Type: physicochemical
- details: Aβ28 500 µM + 500 µM copper(II) nitrate; 50 mM HEPES pH 7.4; 4 °C; 21 days; LC-MS relative % area

Some substances with recorded Remaining amount of Aβ28 and species detected by LC-MS (Table S2):
DAEFRHDSGYEVHHQKLVFFAE.D [hydrolytic fragment 1-22 of Aβ28]
5%
K.LVFFAEDVGSNK [hydrolytic fragment 17-28 of Aβ28]
1%
DAEFRHDSGYEVHHQKLV.F [hydrolytic fragment 1-18 of Aβ28]
7%

The substance listed as DAEFRHDSGYEVHHQKLVF.F [hydrolytic fragment 1-19 of Aβ28] has a reported Remaining amount of Aβ28 and species detected by LC-MS (Table S2) of 1%
